compounds and their reported inhibition at 30 g/ha
tested on: Cyperus iria; assay: Indoor herbicide activity determination, post-emergence (stem and leaf spray at 2-4 leaf stage); type: in vivo; settings: 504 h, 30 g a.i./ha, determined 21 days later, read-out: Inhibition rate of fresh weight, Cyperus iria

>  <compound>
C=C[C@]1(C(=O)N[C@H]2C=C[C@@H](C(=O)OC)C2)CC(c2cc(Cl)cc(C(F)(F)F)c2)=NO1 [I-477]

>  <inhibition at 30 g/ha>
80 to 100%

$$$$
>  <compound>
COC(=O)[C@H]1CC[C@@H](NC(=O)[C@@]2(C(F)(F)F)CC(c3cc(F)cc(F)c3)=NO2)C1 [CK4, reference compound]

>  <inhibition at 30 g/ha>
20 to 40%

$$$$
>  <compound>
C=C[C@]1(C(=O)N[C@H]2C[C@@H](C(=O)OC)C2)CC(c2cc(F)cc(F)c2)=NO1 [I-4]

>  <inhibition at 30 g/ha>
80 to 100%

$$$$
>  <compound>
C=C[C@]1(C(=O)N[C@H]2C[C@@H](C(=O)OCC)C2)CC(c2cc(F)cc(F)c2)=NO1 [I-5]

>  <inhibition at 30 g/ha>
80 to 100%

$$$$

====

molecules and their reported inhibition at 30 g/ha
system: Cyperus iria; assay: Indoor herbicide activity determination, post-emergence (stem and leaf spray at 2-4 leaf stage); format: in vivo; details: 504 h, 30 g a.i./ha, determined 21 days later, read-out: Inhibition rate of fresh weight, Cyperus iria

>  <molecule>
C=C[C@]1(C(=O)N[C@H]2C=C[C@@H](C(=O)OC)C2)CC(c2cc(F)cc(F)c2)=NO1 [CK2, reference compound]

>  <inhibition at 30 g/ha>
60 to 80%

$$$$
>  <molecule>
COC(=O)[C@@H]1CC[C@H](NC(=O)[C@@]2(C(F)(F)F)CC(c3cc(F)cc(F)c3)=NO2)C1 [CK3, reference compound]

>  <inhibition at 30 g/ha>
40 to 60%

$$$$
>  <molecule>
C=C[C@]1(C(=O)N[C@H]2C=C[C@@H](C(=O)OCC(C)C)C2)CC(c2cc(F)cc(C(F)(F)F)c2)=NO1

>  <inhibition at 30 g/ha>
60 to 80%

$$$$
>  <molecule>
O=C(O)[C@H]1CC[C@@H](NC(=O)[C@@]2(C(F)(F)F)CC(c3cc(F)cc(F)c3)=NO2)C1 [CK6, reference compound]

>  <inhibition at 30 g/ha>
20 to 40%

$$$$
>  <molecule>
O=C(O)[C@@H]1CC[C@H](NC(=O)[C@@]2(C(F)(F)F)CC(c3cc(F)cc(F)c3)=NO2)C1 [CK5, reference compound]

>  <inhibition at 30 g/ha>
40 to 60%

$$$$
>  <molecule>
C=C[C@]1(C(=O)N[C@H]2CO[C@@H](C(=O)O)C2)CC(c2cc(F)cc(F)c2)=NO1 [icafolin, reference compound]

>  <inhibition at 30 g/ha>
40 to 60%

$$$$
>  <molecule>
C=CC1(C(=O)NC2COC(C(=O)OC)C2)CC(c2cc(F)cc(F)c2)=NO1 (centres unmarked) [icafolin-methyl, reference compound]

>  <inhibition at 30 g/ha>
40 to 60%

$$$$
>  <molecule>
C=C[C@]1(C(=O)N[C@H]2C=C[C@@H](C(=O)O)C2)CC(c2cc(F)cc(F)c2)=NO1 [CK1, reference compound]

>  <inhibition at 30 g/ha>
60 to 80%

$$$$
